meta.source: the supplement of paper PMC7877785

I'd be grateful if you could share measured self-splicing fitness (ln) for these entries.
Test: self-splicing fitness, log relative to wild type (ln ratio); higher = more splicing; Tetrahymena group I intron in knt gene, E. coli kanamycin selection, DiMSum; sequences stand for … in CUCUCU…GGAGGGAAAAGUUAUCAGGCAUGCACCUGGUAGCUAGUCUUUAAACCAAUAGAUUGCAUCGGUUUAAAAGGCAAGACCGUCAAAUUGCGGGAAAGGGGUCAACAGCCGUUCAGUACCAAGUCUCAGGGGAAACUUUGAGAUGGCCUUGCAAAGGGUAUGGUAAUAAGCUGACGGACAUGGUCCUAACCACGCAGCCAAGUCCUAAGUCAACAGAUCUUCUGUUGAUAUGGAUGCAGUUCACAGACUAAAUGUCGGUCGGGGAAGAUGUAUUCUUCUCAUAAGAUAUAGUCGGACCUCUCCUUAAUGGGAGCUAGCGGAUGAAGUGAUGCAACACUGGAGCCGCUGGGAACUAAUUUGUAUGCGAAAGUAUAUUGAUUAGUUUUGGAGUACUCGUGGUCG;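 further: selection with 25 µg/mL kanamycin versus none on LB agar overnight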
Conditions: 30 °C
Give bare numbers.

Worked cases, self-splicing fitness (ln) given:
{"residue_sequence": "CCUGAGCAAUAUUACGGGCG", "self-splicing fitness (ln)": -2.62}
{"residue_sequence": "AGAUAGCAAUAUUACGGUGC", "self-splicing fitness (ln)": -4.21}
{"residue_sequence": "CGCAAGCAAUAUUACGCCCG", "self-splicing fitness (ln)": -1.22}
{"residue_sequence": "UUGGAGCAAUAUUACGCGUG", "self-splicing fitness (ln)": -3.03}
{"residue_sequence": "UCAUAGCAAUAUUACGGCCU", "self-splicing fitness (ln)": -3.03}
{"residue_sequence": "AAGCAGCAAUAUUACGCCCA", "self-splicing fitness (ln)": -0.461}

Go through the items and report each one's self-splicing fitness (ln).
1. UGUCAGCAAUAUUACGCAUU
2. AGCUAGCAAUAUUACGCCGU
3. GGUGAGCAAUAUUACGCAGA
4. AGCGAGCAAUAUUACGGCUC

**Result**
1. -1.74
2. -1.23
3. -2.51
4. -3.06

Go through the items and report each one's self-splicing fitness (ln).
1. UGCCAGCAAUAUUACGUAGG
2. UGGGAGCAAUAUUACGGCGA
3. UCACAGCAAUAUUACGUUUA
4. UGGCAGCAAUAUUACGACGG
5. GUGGAGCAAUAUUACGGGAG

**Result**
1. -3.34
2. -1.73
3. -2.53
4. -0.817
5. -3.74

**Query** Determine from records and report self-splicing fitness (ln) for UCUUAGCAAUAUUACGAGGG
**Result** -1.87
